Consider the following molecules; for each one, report its growth.
Test system: MDA-MB-231 breast
Assay: NCI-60 one-dose screen, 48 h (100 = growth as untreated, 0 = no growth, -100 = all killed)
Conditions: 10 µM unless noted
About 83,000 compounds went through this panel and 20% of them were active in at least one assay; those are over-represented in the sample as a whole. The source made the active and inactive calls. The calls were made as follows: active = growth percent below 10; inactive = the rest.

Incoming: Endpoint output: growth of CCN(CC)CCS(=O)(=O)CCNc1ccnc2cc(Cl)ccc12 . Value?
Outgoing: -2.95% (active)

Incoming: Query COc1ccc2nc3c(cc2c1)C(=O)CC(C(F)(F)F)C3 (configuration not stated) next
Outgoing: 60% (inactive)

Incoming: Query COc1ccc2c(c1)C(C)Cc1c(Cl)ncnc1N2C (configuration not stated) next
Outgoing: -45.3% (active)

Incoming: Query CC1(C)C(=O)/C(=C\c2cccnc2)C[C@]2(C)[C@H]3CC[C@@H]4[C@H]5[C@H](C(=O)/C=C/c6cccnc6)CC[C@]5(C(=O)O)CC[C@@]4(C)[C@]3(C)CC[C@@H]12 next
Outgoing: -34.6% [100 µM] (active)

Incoming: Query Cn1cc(-c2noc(C(=O)c3cn(C)c4ncccc34)n2)c2ccccc21 next
Outgoing: 70.3% (inactive)

Incoming: Query CCNC(=O)N1CCc2c(Cl)c3c(c(OC)c2[C@@H]1[C@H]1OCc2c1ccc(OC)c2OC)OCCO3 next
Outgoing: 43.2% (inactive)

Incoming: Query CSc1nc2sc3cc(Cl)c(Cl)cc3n2c(=N)c1C#N next
Outgoing: 83.7% (inactive)

Incoming: Query O=C1Nc2ccccc2/C1=C/C(=O)c1ccc(N2CCCC2)cc1 next
Outgoing: 47.2% (inactive)

Incoming: Query CC(C)=CC/C=C(/C)[C@H]1CC[C@]2(C)[C@@H]1CC[C@@H]1[C@@]3(C)CC/C(=N/O)C(C)(C)[C@@H]3CC[C@]12C next
Outgoing: 50.5% [100 µM] (inactive)

Incoming: Query Cc1cc(SC#N)ncn1 next
Outgoing: 93.3% (inactive)

Incoming: Query COc1ccc2c(c1)c(-c1noc(-c3cn(C)c4ncc(F)cc34)n1)cn2C next
Outgoing: 62.2% (inactive)

Incoming: Query O=C(Nc1ccccc1)Nc1ccc(C(=O)/C=C/c2ccc(N3CCCC3)cc2)cc1 next
Outgoing: 56.8% (inactive)

From: PubChem BioAssay (NCI)
